Value source: paper PMC4505863

Target: 5-HT1A (Homo sapiens)
Sequence (P08908 whole entry): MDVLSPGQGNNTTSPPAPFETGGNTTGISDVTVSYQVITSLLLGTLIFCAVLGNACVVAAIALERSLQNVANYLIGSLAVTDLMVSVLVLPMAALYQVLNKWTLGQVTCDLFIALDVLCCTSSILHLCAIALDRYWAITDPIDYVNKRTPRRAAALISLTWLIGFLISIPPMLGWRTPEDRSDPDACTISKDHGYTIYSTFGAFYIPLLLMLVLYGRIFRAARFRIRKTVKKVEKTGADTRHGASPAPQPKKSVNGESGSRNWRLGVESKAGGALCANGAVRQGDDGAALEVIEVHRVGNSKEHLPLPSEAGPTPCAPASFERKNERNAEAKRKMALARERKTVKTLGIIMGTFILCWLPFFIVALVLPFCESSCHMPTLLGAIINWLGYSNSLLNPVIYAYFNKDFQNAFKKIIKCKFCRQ
Test: PDSP screening affinity 5-HT1A
Format: binding
Settings: 5-HT1A affinity
experimental-endpoint: pKi
Numbers only, as −log10 of the molar value.

Example entries begin here.
input-smiles	pKi
COc1ccc(CNCCc2c[nH]c3ccc(OC)cc23)cc1	7.12
COc1ccc2[nH]cc(CCNCc3cccc(Br)c3)c2c1	6.81
COc1cc(CCNCc2ccccc2OC)c(OC)cc1I	5.99
COc1ccc2[nH]cc(CCNCc3ccccc3OC)c2c1	6.64
COc1cccc(CNCCc2c[nH]c3ccc(OC)cc23)c1	6.47

For the 2 compounds below, give their pKi values.
1. COc1cccc(CNCCc2cc(OC)c(I)cc2OC)c1
2. COc1ccc2[nH]cc(CCNCc3cccc(Cl)c3)c2c1

RESULT:
1: 6.03; 2: 6.71

###

Can you tell me EC50 for the items I'm about to list?
Target: UniProtKB P41595
Assay: Ca2+ mobilization assay
Type: cell-based
Conditions: h5-HT2B pEC50 ± SEM, Ca2+ mobilization; NA = not active, Emax ≤ 15%
Give bare numbers, in µM.

input-smiles	EC50, µM
COc1cc(CCNCc2ccccc2OC)c(OC)cc1I	0.0155
COc1cc(CCNCc2cccc(Br)c2)c(OC)cc1I	0.0891
COc1cc(CCNCc2ccccc2Br)c(OC)cc1I	0.151
COc1ccc2[nH]cc(CCNCc3cccc(F)c3)c2c1	0.038

Could you now look at the following compound, please?
QUERY: Sample `COc1ccc(CNCCc2c[nH]c3ccc(OC)cc23)cc1` — what was its EC50?
RESULT: 0.0229

###

Can you tell me Emax for the items I'm about to list?
Molecular target: h5-HT2B (Homo sapiens)
Sequence (P41595 whole entry): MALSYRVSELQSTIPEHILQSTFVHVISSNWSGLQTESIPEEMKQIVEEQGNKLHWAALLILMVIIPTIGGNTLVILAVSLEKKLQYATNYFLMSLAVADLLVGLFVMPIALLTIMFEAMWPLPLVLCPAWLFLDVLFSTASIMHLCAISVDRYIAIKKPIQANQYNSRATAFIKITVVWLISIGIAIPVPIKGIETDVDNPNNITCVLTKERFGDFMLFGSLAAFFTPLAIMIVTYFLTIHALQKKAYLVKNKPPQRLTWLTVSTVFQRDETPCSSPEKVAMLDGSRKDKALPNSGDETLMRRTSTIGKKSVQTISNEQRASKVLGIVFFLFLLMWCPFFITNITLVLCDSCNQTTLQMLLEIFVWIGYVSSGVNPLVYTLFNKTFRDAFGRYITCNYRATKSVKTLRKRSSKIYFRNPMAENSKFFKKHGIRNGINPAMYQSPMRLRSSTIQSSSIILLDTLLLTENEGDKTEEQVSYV
Test: Ca2+ mobilization assay
Type: cell-based
Conditions: HEK293, read-out: h5-HT2B Emax
Give bare numbers, in %.

compound	Emax (%)
COc1ccc2[nH]cc(CCNCc3ccccc3OC)c2c1 [Compound 5a]	52

Hey, quick one: what's Emax for each of these?
1. COc1cc(CCNCc2ccccc2OC)c(OC)cc1I [Compound 1]
2. COc1cc(CCNCc2ccc(Br)cc2)c(OC)cc1I [Compound 4e]
3. COc1ccc(CNCCc2cc(OC)c(I)cc2OC)cc1 [Compound 4b]
4. COc1cc(CCNCc2cccc(Br)c2)c(OC)cc1I [Compound 4d]
5. COc1ccc2[nH]cc(CCNCc3cccc(I)c3)c2c1 [Compound 5i]
6. COc1ccc2[nH]cc(CCNCc3cccc(Br)c3)c2c1 [Compound 5e]
7. COc1ccc2[nH]cc(CCNCc3ccc(Br)cc3)c2c1 [Compound 5f]

RESULT:
1. 65
2. 90
3. 38
4. 90
5. 31
6. 20
7. 90

Parameters: items (list). Returns: Emax for each item.
1. COc1ccc2[nH]cc(CCNCc3cccc(F)c3)c2c1 [Compound 5g]
2. COc1cc(CCNCc2ccccc2Br)c(OC)cc1I [Compound 4c]
3. COc1ccc(CNCCc2c[nH]c3ccc(OC)cc23)cc1 [Compound 5c]
4. COc1ccc2[nH]cc(CCNCc3cccc(C(F)(F)F)c3)c2c1 [Compound 5k]

RESULT:
1. 37
2. 83
3. 81
4. 51

###

Target: 5-HT2A receptor (Homo sapiens)
Sequence (P28223 whole entry): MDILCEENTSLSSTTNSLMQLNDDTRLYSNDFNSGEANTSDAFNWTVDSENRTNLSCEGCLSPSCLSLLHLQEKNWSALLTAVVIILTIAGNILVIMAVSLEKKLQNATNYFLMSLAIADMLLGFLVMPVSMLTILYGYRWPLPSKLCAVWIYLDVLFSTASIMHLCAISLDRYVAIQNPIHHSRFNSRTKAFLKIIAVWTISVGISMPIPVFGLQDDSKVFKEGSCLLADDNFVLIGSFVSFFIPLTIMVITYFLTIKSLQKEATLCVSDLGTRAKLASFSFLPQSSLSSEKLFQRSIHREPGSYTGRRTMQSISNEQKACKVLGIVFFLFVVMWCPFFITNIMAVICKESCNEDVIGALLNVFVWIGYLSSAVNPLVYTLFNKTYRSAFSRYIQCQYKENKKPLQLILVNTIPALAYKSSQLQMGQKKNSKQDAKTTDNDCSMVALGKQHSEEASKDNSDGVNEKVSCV
Assay: h5-HT2A affinity, agonist radioligand [125I]DOI
Assay type: binding
Class definitions on Ki: I = under 0.7 nM, II = from 0.7 nM up to 2 nM, III = 2 nM and over

compound	system-tested	class-name
COc1ccc2[nH]cc(CCNCc3cccc(Br)c3)c2c1 [Compound 5e]	5-HT2A receptor (Homo sapiens)	II
COc1ccc2[nH]cc(CCNCc3cccc(SC)c3)c2c1 [Compound 5l]	5-HT2A receptor (Homo sapiens)	III

QUERY: Band assignment needed for COc1ccc2[nH]cc(CCNCc3ccccc3OC)c2c1 [Compound 5a] please.
RESULT: II

QUERY: Then what about the compound COc1ccc2[nH]cc(CCNCc3cccc(C(F)(F)F)c3)c2c1 [Compound 5k] ?
RESULT: III

QUERY: Note, next up: COc1cc(CCNCc2ccccc2OC)c(OC)cc1I [Compound 1]
RESULT: I

QUERY: For COc1cc(CCNCc2cccc(Br)c2)c(OC)cc1I [Compound 4d] then?
RESULT: I

QUERY: Then what about the compound COc1ccc2[nH]cc(CCNCc3cccc(I)c3)c2c1 [Compound 5i] ?
RESULT: I

QUERY: Same question, COc1ccc2[nH]cc(CCNCc3ccccc3Br)c2c1 [Compound 5d] this time
RESULT: III

QUERY: For COc1cccc(CNCCc2c[nH]c3ccc(OC)cc23)c1 [Compound 5b] then?
RESULT: II

QUERY: Repeat for the following compound: COc1ccc(CNCCc2c[nH]c3ccc(OC)cc23)cc1 [Compound 5c]
RESULT: III

QUERY: Continue with COc1cc(CCNCc2ccccc2Br)c(OC)cc1I [Compound 4c]
RESULT: I
